molecular target: FER (Homo sapiens, UniProt P16591); construct: the DNA-tagged SH2 domain concentrations used in this study were <0.1 nM; made in house; host or cells: HEK293 (transient transfection; unpurified extract); assay: biochemical; type: binding; conditions: dose-response; read-out: KD
Sequence (P16591 460-550 limits assumed): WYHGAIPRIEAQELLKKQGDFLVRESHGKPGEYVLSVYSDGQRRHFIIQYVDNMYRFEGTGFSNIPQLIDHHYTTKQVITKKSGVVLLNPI
Readout type: Kd (nM)
Please respond with the number in nM and leave the unit unwritten.

Summary for this compound, O=C(COc1ccc2cc(C(=O)Nc3ccccc3)ccc2c1)NCc1ccc(OP(=O)(O)O)c(OP(=O)(O)O)c1 : Kd is 1900

Form: compound = C/C(=C\C(=O)N[C@H](C(=O)N1CCC[C@H]1C(=O)N(c1ccccc1)c1ccc(I)cc1)C(C)(C)C)c1ccc(OP(=O)(O)O)cc1 ; Kd = 1400

What the record says about CC(C)(C)[C@H](NC(=O)/C=C/c1ccc(OP(=O)(O)O)cc1)C(=O)N1CCC[C@H]1C(=O)N(c1ccccc1)c1ccc(I)cc1 : Kd is 8000

* * *

pKd reference
target: STAT3 (Homo sapiens); construct: made in house; host or cells: HEK293 (transient transfection), unpurified extract; experiment: biochemical; type: binding; conditions: dose-response; read-out: KD
Sequence (P40763 whole entry): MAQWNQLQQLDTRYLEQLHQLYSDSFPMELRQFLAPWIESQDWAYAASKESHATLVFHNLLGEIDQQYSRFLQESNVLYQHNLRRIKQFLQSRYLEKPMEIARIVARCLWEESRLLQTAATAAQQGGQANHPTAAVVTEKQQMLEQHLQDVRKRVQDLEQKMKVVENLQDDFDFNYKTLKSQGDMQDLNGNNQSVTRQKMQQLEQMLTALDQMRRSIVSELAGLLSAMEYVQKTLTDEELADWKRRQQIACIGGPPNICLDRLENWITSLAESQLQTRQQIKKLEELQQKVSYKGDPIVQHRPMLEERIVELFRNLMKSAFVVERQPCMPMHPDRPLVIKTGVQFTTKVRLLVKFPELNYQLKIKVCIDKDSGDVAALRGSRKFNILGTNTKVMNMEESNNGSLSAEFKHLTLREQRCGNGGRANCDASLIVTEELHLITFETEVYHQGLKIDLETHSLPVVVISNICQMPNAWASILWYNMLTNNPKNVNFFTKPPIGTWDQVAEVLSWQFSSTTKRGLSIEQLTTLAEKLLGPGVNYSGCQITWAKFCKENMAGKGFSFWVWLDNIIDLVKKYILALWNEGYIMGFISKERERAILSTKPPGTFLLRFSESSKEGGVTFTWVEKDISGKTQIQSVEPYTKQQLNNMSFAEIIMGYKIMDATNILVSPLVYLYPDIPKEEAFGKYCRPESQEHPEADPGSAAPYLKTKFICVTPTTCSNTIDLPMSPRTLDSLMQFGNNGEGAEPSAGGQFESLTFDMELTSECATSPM
Friendly reminder that pKd comes from taking -log10 of the concentration in mol/L.

INSERT INTO results (query_smiles, readout_type, experimental_value) VALUES
  ('C/C(=C\C(=O)N[C@H](C(=O)N1CCC[C@H]1C(=O)N(c1ccccc1)c1ccc(I)cc1)C(C)(C)C)c1ccc(OP(=O)(O)O)cc1', 'pKd', 6.74);

Now examine the next entry.
Briefly, pKd measured for CC(C)(C)[C@H](NC(=O)/C=C/c1ccc(OP(=O)(O)O)cc1)C(=O)N1CCC[C@H]1C(=O)N(c1ccccc1)c1ccc(I)cc1 : 6.43

* * *

biological target: PTPN11(SH2dom.C-term.) (Homo sapiens, UniProt Q06124); construct: SH2dom.C-term. denotes SH2 domain closest to C-terminus of protein; made in house; host or cells: HEK293 (transient transfection, unpurified extract); experiment: biochemical; format: binding; conditions: primary screen, 10 μM
Sequence (Q06124 112-216 limits assumed): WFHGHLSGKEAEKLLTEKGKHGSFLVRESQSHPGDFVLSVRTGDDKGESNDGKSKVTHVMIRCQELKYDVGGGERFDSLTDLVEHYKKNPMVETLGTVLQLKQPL
Non-standard residues stand in square brackets, D forms with d. Residues, ends and D or L forms follow the SMILES beside them. *: point of attachment. pY = N[C@@H](Cc1ccc(OP(=O)(O)O)cc1)C(=O)O; Caffeoyl = O=C(/C=C/c1ccc(O)c(O)c1)*
Listed here: items and their measured percent of DMSO vehicle control.
// units = %; emit number, no label

Solved entries (count: 2):
INSERT INTO assay_data (molecule, readout_type, experimental_value) VALUES
  ('CC(C)(C)[C@H](NC(=O)/C=C/c1ccc(OP(=O)(O)O)cc1)C(=O)N1CCC[C@H]1C(=O)N(c1ccccc1)c1ccc(I)cc1', 'percent of DMSO vehicle control', 37.9),
  ('CC(=O)N[C@@H](Cc1ccc(CP(=O)(O)O)cc1)C(=O)NC1(C(=O)N[C@@H](CC(N)=O)C(=O)NCCCc2c(O)ccc3ccccc23)CCCCC1', 'percent of DMSO vehicle control', 127.5);

Reported percent of DMSO vehicle control for NC(=O)CC[C@H](NC(=O)[C@@H]1CC[C@@H]2CCN(C(=O)CCCCCC#Cc3cccc4c3CN(C3CCC(=O)NC3=O)C4=O)C[C@H](NC(=O)c3cc4cc(C(F)(F)P(=O)(O)O)ccc4[nH]3)C(=O)N21)C(=O)NC(c1ccccc1)c1ccccc1 (stereo partly drawn) was 104.4

Memo: CC[C@H](C)[C@H](NC(=O)[C@H](CCC(=O)O)NC(=O)[C@H](CCC(=O)O)NC(=O)[C@H](Cc1ccc(OP(=O)(O)O)cc1)NC(C)=O)C(=O)N[C@@H](CCC(=O)O)C(N)=O [Ac-pYEEIE-NH2] (Ac-[pY]EEIE-NH2) , reported percent of DMSO vehicle control: 133.6

Record summary for O=C(COc1ccc2cc(C(=O)Nc3ccccc3)ccc2c1)NCc1ccc(OP(=O)(O)O)c(OP(=O)(O)O)c1 : reported percent of DMSO vehicle control = 99.1

Value of percent of DMSO vehicle control reported for the molecule O=C(CCl)Nc1cccc(CNC(=O)[C@H](Cc2ccc(OP(=O)(O)O)cc2)NC(=O)Cc2ccc(F)cc2)c1 is 125.6

Reported percent of DMSO vehicle control ( C/C(=C\C(=O)N[C@H](C(=O)N1CCC[C@H]1C(=O)N(c1ccccc1)c1ccc(I)cc1)C(C)(C)C)c1ccc(OP(=O)(O)O)cc1 ) = 2.1

Note to self: percent of DMSO vehicle control recorded for CC(=O)N1CC[C@H]2CC[C@@H](C(=O)N[C@@H](CCC(N)=O)C(=O)NC(c3ccccc3)c3ccccc3)N2C(=O)[C@@H](NC(=O)c2cc3cc(C(F)(F)P(=O)(O)O)ccc3[nH]2)C1 was 136.9

In plain terms, CC[C@H](C)[C@H](NC(=O)[C@H](CCC(=O)O)NC(=O)[C@H](CCC(=O)O)NC(=O)[C@H](Cc1ccc(OP(=O)(O)O)cc1)NC(=O)/C=C/c1ccc(O)c(O)c1)C(=O)N[C@@H](CCC(=O)O)C(=O)O [Caffeic acid-pYEEIE] (Caffeoyl-[pY]EEIE-OH) has a documented percent of DMSO vehicle control of 72.6
